src = ChEMBL document CHEMBL3421592

- Test system: Rattus norvegicus
- Assay Summary: Antiinflammatory activity in Wistar rat assessed as inhibition of carrageenan-induced paw edema at 10 mg/kg indomethacin mol equivalent, ip administered 1 hr prior to carrageenan challenge measured at 24 hrs relative to control
- Format: functional
- Condition Set: route intraperitoneal
Measured inhibition in vivo, listed per entry for reference.
Could you kindly put the unit after your number?

Smiles | Measured Target | inhibition in vivo
Cc1ncc([N+](=O)[O-])n1CCOC(=O)c1cc(NC(=O)[C@H](C)NC(=O)OCc2ccccc2)ccc1O | Rattus norvegicus | 11.6%
Cc1ncc([N+](=O)[O-])n1CCOC(=O)c1cc(NC(=O)[C@H](CCCCN)NC(=O)OCc2ccccc2)ccc1O | Rattus norvegicus | 23.4%
CC(=O)Nc1ccc(O)c(C(=O)O)c1 | Rattus norvegicus | 0%
CC(=O)Nc1ccc(O)c(C(=O)OCCn2c([N+](=O)[O-])cnc2C)c1 | Rattus norvegicus | 0%

Now for a further molecule.
Which measured inhibition in vivo value corresponds to Cc1ncc([N+](=O)[O-])n1CCOC(=O)c1cc(NC(=O)[C@H](Cc2ccccc2)NC(=O)OCc2ccccc2)ccc1O ?
33.2%

---

- System: Rattus norvegicus
- Assay Summary: Antiinflammatory activity in Wistar rat assessed as inhibition of carrageenan-induced paw edema at 10 mg/kg indomethacin mol equivalent, ip administered 1 hr prior to carrageenan challenge measured at 24 hrs relative to control
- Assay type: functional
- Condition Set: route intraperitoneal
Measured inhibition in vivo, listed per entry for reference.
Please respond with the number in % and leave the unit unwritten.

Example cases with answers are listed next.
Compound | inhibition in vivo (%)
Nc1ccc(O)c(C(=O)O)c1 | 38.6
Cc1ncc([N+](=O)[O-])n1CCO | 0
Cc1ncc([N+](=O)[O-])n1CCOC(=O)c1cc(NC(=O)CNC(=O)OCc2ccccc2)ccc1O | 17.1
Cc1ncc([N+](=O)[O-])n1CCOC(=O)c1cc(NC(=O)[C@@H](NC(=O)OCc2ccccc2)C(C)C)ccc1O | 51.7

Which measured inhibition in vivo value corresponds to Cc1ncc([N+](=O)[O-])n1CCOC(=O)c1cc(NC(=O)C(C)NC(=O)OCc2ccccc2)ccc1O (racemic) ?
0

---

- Test system: Rattus norvegicus
- Assay Summary: Antiinflammatory activity in Wistar rat assessed as inhibition of carrageenan-induced paw edema at 10 mg/kg indomethacin mol equivalent, ip administered 1 hr prior to carrageenan challenge measured at 1 hr relative to control
- Assay type: functional
- Condition Set: route intraperitoneal
Measurement Name: inhibition in vivo (%)
Please respond with the number in % and leave the unit unwritten.

Smiles | Measured Target | inhibition in vivo / %
Cc1ncc([N+](=O)[O-])n1CCOC(=O)c1cc(NC(=O)CNC(=O)OCc2ccccc2)ccc1O | Rattus norvegicus | 56.1
CC(=O)Nc1ccc(O)c(C(=O)O)c1 | Rattus norvegicus | 43.3
Cc1ncc([N+](=O)[O-])n1CCO | Rattus norvegicus | 66.3

Which measured inhibition in vivo value corresponds to Cc1ncc([N+](=O)[O-])n1CCOC(=O)c1cc(NC(=O)[C@H](CCCCN)NC(=O)OCc2ccccc2)ccc1O ?
44.3

Note, next up: Nc1ccc(O)c(C(=O)O)c1
63.8

Note, next up: CC(=O)Nc1ccc(O)c(C(=O)OCCn2c([N+](=O)[O-])cnc2C)c1
63.4
